# Test system: IGROV1 ovarian
# EXPERIMENT: NCI-60 one-dose screen, 48 h (100 = growth as untreated, 0 = no growth, -100 = all killed)
# EXPERIMENTAL CONDITIONS: 10 µM unless noted
Compounds without any hit were thinned out: in the full panel of roughly 83,000, 20% have a hit.
MEASUREMENT TYPE: growth (%)
Give bare numbers, in %.

Test system IGROV1 ovarian; read-out growth; what value for CCOC(=O)C1=C(C)NC(=S)NC1c1ccccc1 (stereo unspecified) ? 97.4

Test system IGROV1 ovarian; read-out growth; what value for Cc1nc(N)nc2c1CCC(Nc1ccccc1)S2 (stereo unspecified) ? 111

Test system IGROV1 ovarian; read-out growth; what value for CN(C)c1nc(-c2ccco2)n2nc(-c3ccc(Cl)cc3)cc2n1 ? 55.8

Below are some compounds; for each one, tell me its growth.
1. CN(C)c1nc(-c2cccs2)n2nc(-c3ccc(Cl)cc3)cc2n1
2. CC1CCCN(CCCCOc2ccc(-c3ccc(C#N)cc3)cc2)C1 (stereo unspecified)
3. COC(=O)C(Br)(C(=O)OC)C(Br)C(Br)C(Br)c1ccccc1 (stereo unspecified)

11.9
107
39.1
